The measurements presented in this section are drawn from patent US20120039802A1.

Reported % of binding in the absence of HGF values are given for each entry in this list.
- TEST SYSTEM: T1, cMet-Fc fusion protein (extracellular domain of the cMet receptor expressed as an Fc-fusion protein) (human, UniProt P08581 25-932)
- T1 construct: extracellular domain; also called soluble cMet-Fc-fusion protein; soluble cMet receptor; not shown: Fc part
- T1 sequence (P08581 25-932): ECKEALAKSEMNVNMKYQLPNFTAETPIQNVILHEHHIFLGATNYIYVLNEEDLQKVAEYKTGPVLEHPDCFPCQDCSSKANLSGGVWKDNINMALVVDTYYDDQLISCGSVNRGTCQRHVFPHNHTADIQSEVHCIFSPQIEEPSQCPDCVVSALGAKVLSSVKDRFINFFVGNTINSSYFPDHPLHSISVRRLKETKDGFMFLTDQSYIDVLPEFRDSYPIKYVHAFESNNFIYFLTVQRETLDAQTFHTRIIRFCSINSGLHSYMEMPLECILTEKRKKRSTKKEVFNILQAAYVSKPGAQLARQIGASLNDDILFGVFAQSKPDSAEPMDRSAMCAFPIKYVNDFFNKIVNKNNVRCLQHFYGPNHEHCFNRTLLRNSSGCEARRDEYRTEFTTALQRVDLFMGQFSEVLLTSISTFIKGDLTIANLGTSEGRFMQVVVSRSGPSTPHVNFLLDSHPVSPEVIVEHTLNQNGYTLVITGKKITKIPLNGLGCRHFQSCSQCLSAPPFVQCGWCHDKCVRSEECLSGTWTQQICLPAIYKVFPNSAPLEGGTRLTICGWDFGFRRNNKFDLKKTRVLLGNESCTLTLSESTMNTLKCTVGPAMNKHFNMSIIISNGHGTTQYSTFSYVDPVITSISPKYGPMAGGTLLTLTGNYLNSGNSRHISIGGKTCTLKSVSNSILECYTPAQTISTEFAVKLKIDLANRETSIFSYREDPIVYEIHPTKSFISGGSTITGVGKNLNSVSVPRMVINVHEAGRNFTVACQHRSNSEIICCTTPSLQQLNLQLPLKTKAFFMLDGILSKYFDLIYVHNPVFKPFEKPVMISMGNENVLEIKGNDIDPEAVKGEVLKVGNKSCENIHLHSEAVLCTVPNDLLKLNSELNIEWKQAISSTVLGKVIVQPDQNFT
- TEST METHOD NOTES: phage ELISA on cMet-Fc, competitor HGF 100 ng/mL
# output: bare number, implied unit %

# BINDER, % of binding in the absence of HGF [%]
data = [
    ("AQHVVTLTLIQMPFAFNFEPRM [118-B12 peptide-displaying phage (SEQ ID NO: 484)]", 98),
    ("AGYFECKGPPTFECWLSGT [333-H03 peptide-displaying phage (SEQ ID NO: 060)]", 55),
    ("AGNWICTGPPSFGCWYHGT [331-G06 peptide-displaying phage (SEQ ID NO: 078)]", 59),
]

% of binding in the absence of HGF reading for AQWNWDMGFMWTTDSAQVQPSM [96-D06 peptide-displaying phage (SEQ ID NO: 489)] : 154
